Measured relative viability values are reported for all entries that follow.
test system: LOU-NH91; assay: relative viability (nuclei count vs DMSO), 5 days (fraction); higher = more cells survive; conditions: first compound 0.01 µM
Answer with a bare number; do not write a unit.

Reference set, count: 4
- MOLECULE: "CCN(CC)CCCCNc1ncc2cc(-c3cc(OC)cc(OC)c3)c(NC(=O)NC(C)(C)C)nc2n1 + CC(C)C[C@H](NC(=O)[C@H](Cc1ccccc1)NC(=O)c1cnccn1)B(O)O [Bortezomib] (partner 0.002 µM)"
  EXPERIMENTAL_RESULT: 0.531
- MOLECULE: "O=c1cc(N2CCOCC2)oc2c(-c3cccc4c3sc3ccccc34)cccc12 + CC1(C)CCC(c2ccc(Cl)cc2)=C(CN2CCN(c3ccc(C(=O)NS(=O)(=O)c4ccc(N[C@H](CCN5CCOCC5)CSc5ccccc5)c(S(=O)(=O)C(F)(F)F)c4)cc3)CC2)C1 [Navitoclax] (partner 0.5 µM)"
  EXPERIMENTAL_RESULT: 0.637
- MOLECULE: "CCN(CC)CCCCNc1ncc2cc(-c3cc(OC)cc(OC)c3)c(NC(=O)NC(C)(C)C)nc2n1 + CCNC(=O)c1noc(-c2cc(C(C)C)c(O)cc2O)c1-c1ccc(CN2CCOCC2)cc1 [Luminespib] (partner 0.01 µM)"
  EXPERIMENTAL_RESULT: 0.338
- MOLECULE: "O=c1cc(N2CCOCC2)oc2c(-c3cccc4c3sc3ccccc34)cccc12 + O=C(CCCCCCC(=O)Nc1ccccc1)NO [Vorinostat] (partner 1 µM)"
  EXPERIMENTAL_RESULT: 0.623

Value lookup for relative viability; key = O=c1cc(N2CCOCC2)oc2c(-c3cccc4c3sc3ccccc34)cccc12 + Nc1nc2[nH]cc(CCc3ccc(C(=O)N[C@@H](CCC(=O)O)C(=O)O)cc3)c2c(=O)[nH]1 [Pemetrexed] (partner 0.2 µM)
0.39

====

Measured relative viability values are reported for all entries that follow.
system: HCC-78; assay: relative viability (nuclei count vs DMSO), 5 days (fraction); higher = more cells survive; settings: first compound 0.03162 µM
Answer with a bare number; do not write a unit.

Reference set, count: 3
- COMPOUND: "CCN(CC)CCCCNc1ncc2cc(-c3cc(OC)cc(OC)c3)c(NC(=O)NC(C)(C)C)nc2n1 + CC(=O)c1c(C)c2cnc(Nc3ccc(N4CCNCC4)cn3)nc2n(C2CCCC2)c1=O [Palbociclib] (partner 0.5 µM)"
  relative viability: 0.448
- COMPOUND: "CCN(CC)CCCCNc1ncc2cc(-c3cc(OC)cc(OC)c3)c(NC(=O)NC(C)(C)C)nc2n1 + Cc1cc(Nc2cc(N3CCN(C)CC3)nc(Sc3ccc(NC(=O)C4CC4)cc3)n2)n[nH]1 [Tozasertib] (partner 0.1 µM)"
  relative viability: 0.399
- COMPOUND: "O=c1cc(N2CCOCC2)oc2c(-c3cccc4c3sc3ccccc34)cccc12 + CC(C)C[C@H](NC(=O)[C@H](Cc1ccccc1)NC(=O)c1cnccn1)B(O)O [Bortezomib] (partner 0.002 µM)"
  relative viability: 0.467

Query the reported relative viability for HCC-78; item: O=c1cc(N2CCOCC2)oc2c(-c3cccc4c3sc3ccccc34)cccc12 + CC(=O)c1c(C)c2cnc(Nc3ccc(N4CCNCC4)cn3)nc2n(C2CCCC2)c1=O [Palbociclib] (partner 0.5 µM)
0.482
